Assay System: T1, recombinant human IGF-II (Insulin-like Growth Factor II) (human, UniProt P01344 25-91, biotinylated (Biotinyl-IGF-II, GroPep) where immobilised in SPR, site not stated; not biotinylated in ITC and as SPR analyte)
T1 construct: also called IGF2; IGF-2
T1 sequence (P01344 25-91 limits assumed): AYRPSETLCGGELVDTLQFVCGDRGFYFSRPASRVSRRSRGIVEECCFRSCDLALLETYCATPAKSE
Assay Overview: SPR, IGF-II immobilised, kinetic fit
Quick reference for pKd among some binders
Scale: negative log10 of molar concentration, which is what pKd denotes.

# count of solved cases: 3
[
  {
    "Binder": "IGF2R domain 11 K1545A (amino acids 1511-1650, C-terminal His6 tag, from Pichia pastoris) (receptor) NEHDDCQVTNPSTGHLFDLSSLSGRAGFTAAYSEAGLVYMSICGENENCPPGVGACFGQTRISVGKANKRLRYVDQVLQLVYKDGSPCPSKSGLSYKSVISFVCRPEAGPTNRPMLISLDKQTCTLFFSWHTPLACEQATHHHHHH",
    "pKd": 6.54
  },
  {
    "Binder": "IGF2R domain 11 Y1542A (amino acids 1511-1650, C-terminal His6 tag, from Pichia pastoris) (receptor) NEHDDCQVTNPSTGHLFDLSSLSGRAGFTAAASEKGLVYMSICGENENCPPGVGACFGQTRISVGKANKRLRYVDQVLQLVYKDGSPCPSKSGLSYKSVISFVCRPEAGPTNRPMLISLDKQTCTLFFSWHTPLACEQATHHHHHH",
    "pKd": 6.19
  },
  {
    "Binder": "IGF2R domain 11 Q1569A (amino acids 1511-1650, C-terminal His6 tag, from Pichia pastoris) (receptor) NEHDDCQVTNPSTGHLFDLSSLSGRAGFTAAYSEKGLVYMSICGENENCPPGVGACFGATRISVGKANKRLRYVDQVLQLVYKDGSPCPSKSGLSYKSVISFVCRPEAGPTNRPMLISLDKQTCTLFFSWHTPLACEQATHHHHHH",
    "pKd": 6.89
  }
]

Switching to the query record.
Entry IGF2R domain 11 S1596A (amino acids 1511-1650, C-terminal His6 tag, from Pichia pastoris) (receptor) NEHDDCQVTNPSTGHLFDLSSLSGRAGFTAAYSEKGLVYMSICGENENCPPGVGACFGQTRISVGKANKRLRYVDQVLQLVYKDGAPCPSKSGLSYKSVISFVCRPEAGPTNRPMLISLDKQTCTLFFSWHTPLACEQATHHHHHH has what pKd?
6.75
